- Test system: sicklepod (Cassia obtusifolia, CASOB)
- Experiment Description: Pre-emerge test, greenhouse herbicide activity screening
- Format: in vivo
- Measurement Context: 63 g ai/ha; pre-emerge; rated 14 days after application; 0 = no damage, 100 = complete death
Measured Pre-emerge Herbicidal Activity CASOB (phytotoxicity rating, scale 0-100) accompanies every entry in the list below.
Measurement Label: Pre-emerge Herbicidal Activity CASOB (phytotoxicity rating, scale 0-100)

compound=CC(C)Oc1c(Cl)cc(F)c(-n2c(=O)cc(C(F)(F)F)n(C)c2=O)c1N result=20
compound=COc1c(Cl)cc(F)c(-n2c(=O)cc(C(F)(F)F)n(C)c2=O)c1N=CN(C)C result=70
compound=O=c1cc(C(F)(F)F)[nH]c(=O)n1-c1c(F)cc(Cl)c(O)c1[N+](=O)[O-] result=90
compound=C#CCOc1c(Cl)cc(F)c(-n2c(=O)cc(C(F)(F)F)n(C)c2=O)c1N result=90
compound=COc1c(Cl)cc(F)c(-n2c(=O)cc(C(F)(F)F)n(C)c2=O)c1NC(=O)CC#N result=0
compound=COc1c(Cl)cc(F)c(-n2c(=O)cc(C(F)(F)F)n(C)c2=O)c1NC(=O)c1cccc(C)c1 result=70
compound=COc1c(Cl)cc(F)c(-n2c(=O)c(NC(=O)C(F)(F)F)c(C(F)(F)F)n(C)c2=O)c1NC(=O)C(F)(F)F result=30
compound=Cn1c(C(F)(F)F)cc(=O)n(-c2c(F)cc(Cl)c(OC3CCCC3)c2N)c1=O result=0
compound=COc1c(Cl)cc(F)c(-n2c(=O)cc(C(F)(F)F)n(C)c2=O)c1NC(=O)c1ccc(C)cc1 result=90
compound="CCOC(=O)C(C)Nc1c(OC)c(Cl)cc(F)c1-n1c(=O)cc(C(F)(F)F)n(C)c1=O (stereo not shown)" result=0

====

- Test system: sicklepod (Cassia obtusifolia, CASOB)
- Experiment Description: Post-emerge test, greenhouse herbicide activity screening
- Format: in vivo
- Measurement Context: post-emerge, 63 g ai/ha, 14 days after application, rating scale 0-100
Binary call on phytotoxicity rating CASOB with cut-off 90: strictly below means Criterion met, and equality or higher means Criterion not met.

compound="COc1c(Cl)cc(F)c(-n2c(=O)cc(C(F)(F)F)n(C)c2=O)c1NC(=O)c1ccc(OC(F)(F)F)cc1 [2-72]" label_class="Criterion met"
compound="COc1c(Cl)cc(F)c(-n2c(=O)cc(C(F)(F)F)n(C)c2=O)c1NC(=O)OC(C)c1ccccc1 (stereo not shown) [4-47]" label_class="Criterion not met"
compound="CC(C)Oc1c(Cl)cc(F)c(-n2c(=O)cc(C(F)(F)F)n(C)c2=O)c1NC(=O)c1ccc2ccccc2c1 [2-197]" label_class="Criterion met"
compound="Cc1c(Cl)cc(F)c(-n2c(=O)cc(C(F)(F)F)n(C)c2=O)c1NC(=O)c1ccc2ccccc2c1 [Compound 2-122]" label_class="Criterion not met"
compound="COc1ccc(COC(=O)Nc2c(OC)c(Cl)cc(F)c2-n2c(=O)cc(C(F)(F)F)n(C)c2=O)cc1 [4-40]" label_class="Criterion not met"
compound="Cc1ccc(OC(=O)Nc2c(C)c(Cl)cc(F)c2-n2c(=O)cc(C(F)(F)F)n(C)c2=O)cc1C [4-53]" label_class="Criterion met"
compound="COc1c(Cl)cc(F)c(-n2c(=O)cc(C(F)(F)F)n(C)c2=O)c1N(C(=O)c1ccc(Cl)nc1)C(=O)c1ccc(Cl)nc1 [2-100]" label_class="Criterion met"
compound="COc1c(Cl)cc(F)c(-n2c(=O)cc(C(F)(F)F)n(C)c2=O)c1NC(=O)C1CC1 [2-206]" label_class="Criterion met"
compound="COc1c(Cl)cc(F)c(-n2c(=O)cc(C(F)(F)F)n(C)c2=O)c1NC(=O)c1cccc(F)c1F [2-41]" label_class="Criterion met"

====

- Tested on: upland rice (Oryza sp., var. Tebonnet, RICE)
- Experiment Description: Pre-emerge test, crop safety
- Format: in vivo
- Measurement Context: 63 g ai/ha; rating scale 0-100, 14 days after application
Measured Pre-emerge phytotoxicity rating, crop damage RICE accompanies every entry in the list below.
Measurement Label: Pre-emerge phytotoxicity rating, crop damage RICE

compound="COc1c(Cl)cc(F)c(-n2c(=O)cc(C(F)(F)F)n(C)c2=O)c1CC(Cl)C(=O)OCCOc1ccccc1 (single isomer, unassigned) [14-27]" numeric_readout=0
compound="C#CCOC(=O)C(Cl)Cc1c(OC)c(Cl)cc(F)c1-n1c(=O)cc(C(F)(F)F)n(C)c1=O (single isomer, unassigned) [14-20]" numeric_readout=0
compound=CCOC(=O)CCc1c(OC)c(Cl)cc(F)c1-n1c(=O)cc(C(F)(F)F)n(C)c1=O numeric_readout=15
compound="CCOC(=O)C(C)(Cl)Cc1c(OC)c(Cl)cc(F)c1-n1c(=O)cc(C(F)(F)F)n(C)c1=O (stereo not shown)" numeric_readout=20

====

- Tested on: upland rice (Oryza sp., var. Tebonnet, RICE)
- Experiment Description: Pre-emerge test, crop safety
- Format: in vivo
- Measurement Context: 63 g ai/ha; crop damage rating 0-100, 14 days after application
Measured Pre-emerge Herbicidal Activity RICE accompanies every entry in the list below.
Measurement Label: Pre-emerge Herbicidal Activity RICE

compound=CCOC(=O)COc1c(Cl)cc(F)c(-n2c(=O)cc(C(F)(F)F)n(C)c2=O)c1NC(=O)C=Cc1ccccc1 numeric_readout=10
compound=Cc1ccc(OC(=O)Nc2c(C)c(Cl)cc(F)c2-n2c(=O)cc(C(F)(F)F)n(C)c2=O)cc1C numeric_readout=10
compound=Cn1c(C(F)(F)F)cc(=O)n(-c2c(F)cc(Cl)c(O)c2NC(=O)c2ccc3ccccc3c2)c1=O numeric_readout=0
compound=COc1c(Cl)cc(F)c(-n2c(=O)cc(C(F)(F)F)n(C)c2=O)c1NC(=O)OCc1ccc(Cl)c(Cl)c1 numeric_readout=0
compound=COc1c(Cl)cc(F)c(-n2c(=O)cc(C(F)(F)F)n(C)c2=O)c1NC(=O)OCc1ccc(OC(F)(F)F)cc1 numeric_readout=0
compound=Cc1c(Cl)cc(F)c(-n2c(=O)cc(C(F)(F)F)n(C)c2=O)c1NC(=O)OCc1ccccc1Cl numeric_readout=10
compound=Cn1c(C(F)(F)F)cc(=O)n(-c2ccc(Cl)cc2NC(=O)Oc2ccccc2)c1=O numeric_readout=0
compound=CC(C)Oc1c(Cl)cc(F)c(-n2c(=O)cc(C(F)(F)F)n(C)c2=O)c1NC(=O)c1ccc2ccccc2c1 numeric_readout=30
compound=Cn1c(C(F)(F)F)cc(=O)n(-c2c(F)cc(Cl)c(OCC#N)c2NC(=O)OCc2ccccc2)c1=O numeric_readout=60
compound=COC(=O)N(C(=O)OC)c1c(OC)c(Cl)cc(F)c1-n1c(=O)cc(C(F)(F)F)n(C)c1=O numeric_readout=10

====

Measured Post-emerge phytotoxicity rating CORN (crop damage) accompanies every entry in the list below.
- System: field corn (Zea mays L., var. Dekalb 535, CORN)
- Experiment Description: Post-emerge test, crop safety
- Format: in vivo
- Measurement Context: Rate 250 g ai/ha; rating scale 0-100 (0 no damage, 100 complete death); 14 days after application
Measurement Label: Post-emerge phytotoxicity rating CORN (crop damage)

compound="CCOC(=O)C(Cl)Cc1cc(Cl)cc(F)c1-n1nc(C)n(C(F)F)c1=O (centres unmarked)" system="field corn (Zea mays L., var. Dekalb 535, CORN)" result=10
compound="COc1c(Cl)cc(F)c(-n2c(=O)cc(C(F)(F)F)n(C)c2=O)c1CC(Cl)C(=O)OCCOc1ccccc1 (single isomer, unassigned) [14-28]" system="field corn (Zea mays L., var. Dekalb 535, CORN)" result=70
compound="CCOC(=O)C(Br)Cc1c(OC)c(Cl)cc(F)c1-n1c(=O)cc(C(F)(F)F)n(C)c1=O (single isomer, unassigned) [14-33]" system="field corn (Zea mays L., var. Dekalb 535, CORN)" result=95
compound="COCCOC(=O)C(Cl)Cc1c(OC)c(Cl)cc(F)c1-n1c(=O)cc(C(F)(F)F)n(C)c1=O (centres unmarked)" system="field corn (Zea mays L., var. Dekalb 535, CORN)" result=100
compound="CCCCCOC(=O)C(C)(Cl)Cc1c(OC)c(Cl)cc(F)c1-n1c(=O)cc(C(F)(F)F)n(C)c1=O (centres unmarked)" system="field corn (Zea mays L., var. Dekalb 535, CORN)" result=95
compound="COc1c(Cl)cc(F)c(-n2c(=O)cc(C(F)(F)F)n(C)c2=O)c1CC(Cl)C(=O)OCCC(C)C (single isomer, unassigned)" system="field corn (Zea mays L., var. Dekalb 535, CORN)" result=70
compound="COc1c(Cl)cc(F)c(-n2c(=O)cc(C(F)(F)F)n(C)c2=O)c1CC(C)(Cl)C(=O)OCC1CCCO1 (centres unmarked)" system="field corn (Zea mays L., var. Dekalb 535, CORN)" result=100
compound="COc1c(Cl)cc(F)c(-n2c(=O)cc(C(F)(F)F)n(C)c2=O)c1CC(C)(Cl)C(=O)OC(C)C (centres unmarked)" system="field corn (Zea mays L., var. Dekalb 535, CORN)" result=50
compound="COc1c(Cl)cc(F)c(-n2c(=O)cc(C(F)(F)F)n(C)c2=O)c1CC(Cl)C(=O)OCCOc1ccccc1 (single isomer, unassigned) [14-27]" system="field corn (Zea mays L., var. Dekalb 535, CORN)" result=10
compound="CCCCCCOC(=O)C(C)(Cl)Cc1c(OC)c(Cl)cc(F)c1-n1c(=O)cc(C(F)(F)F)n(C)c1=O (centres unmarked)" system="field corn (Zea mays L., var. Dekalb 535, CORN)" result=100
compound="CCCOC(=O)C(Cl)Cc1c(OC)c(Cl)cc(F)c1-n1c(=O)cc(C(F)(F)F)n(C)c1=O (single isomer, unassigned) [14-6]" system="field corn (Zea mays L., var. Dekalb 535, CORN)" result=60
compound="CCCCCOC(=O)C(Cl)Cc1c(OC)c(Cl)cc(F)c1-n1c(=O)cc(C(F)(F)F)n(C)c1=O (single isomer, unassigned) [14-10]" system="field corn (Zea mays L., var. Dekalb 535, CORN)" result=60
compound="COc1c(Cl)cc(F)c(-n2c(=O)cc(C(F)(F)F)n(C)c2=O)c1CC(C)(Cl)C(=O)OCC(C)C (centres unmarked)" system="field corn (Zea mays L., var. Dekalb 535, CORN)" result=70
compound="CCOC(=O)C(C)(Cl)Cc1c(OC)c(Cl)cc(F)c1-n1c(=O)cc(C(F)(F)F)n(C)c1=O (centres unmarked)" system="field corn (Zea mays L., var. Dekalb 535, CORN)" result=100
